Catalogue of myelination readings, one per entry.
Tested on: E18 rat cortical neuron-glia co-culture
protocol notes: myelination (MBP fiber length per Olig2+ nucleus), % of 1 µM DAPT response (DMSO = 0) (% of DAPT); higher = more myelination, active = 50 or more
experimental conditions: 5 µM; treatment time: 8 days (DIV5-DIV13)

Take a look at these entries with their results.
COCC1=C(C(=O)OC(C)OC(=O)OC(C)C)N2C(=O)[C@@H](NC(=O)/C(=N\OC)c3csc(N)n3)[C@H]2SC1 (stereo not given in full) [Cefpodoxime proxetil]	-4.97 (inactive)
OCCOCCN1CCN(C2=Nc3ccccc3Sc3ccccc32)CC1 [Quetiapine hemifumarate]	-19.9 (inactive)
CN1CCCCC1CCN1c2ccccc2Sc2ccc([S+](C)[O-])cc21 (stereo not given) [Mesoridazine]	-20.4 (inactive)
O=C(O)c1cc(/N=N/c2ccc(S(=O)(=O)Nc3ccccn3)cc2)ccc1O [Sulfasalazine]	1.71 (inactive)
CN(C)CCc1c[nH]c2ccc(C[C@H]3COC(=O)N3)cc12 [Zolmitriptan]	-14.6 (inactive)
COC1=CC(=O)C[C@@H](C)[C@]12Oc1c(Cl)c(OC)cc(OC)c1C2=O [Griseofulvin]	21.8 (inactive)

Query :: Form field: reported myelination of CO[C@H]1/C=C/O[C@@]2(C)Oc3c(C)c(O)c4c(O)c(c(/C=N/N5CCN(C)CC5)c(O)c4c3C2=O)NC(=O)/C(C)=C\C=C\[C@H](C)[C@H](O)[C@@H](C)[C@@H](O)[C@@H](C)[C@H](OC(C)=O)[C@@H]1C [Rifampicin]
Result :: -2.96 (inactive)

Query :: Could you share which myelination value was measured for CO/N=C(\C(=O)N[C@@H]1C(=O)N2C(C(=O)O)=C(COC(N)=O)CS[C@H]12)c1ccco1 [Cefuroxime] ?
Result :: -51.7 (inactive)

Query :: State the recorded myelination for this entry: CNCCCN1c2ccccc2CCc2ccccc21 [Desipramine]
Result :: -13.3 (inactive)

Query :: Would you kindly share the measured myelination for CC(COc1ccccc1)N(CCCl)Cc1ccccc1 (stereo not given) [Phenoxybenzamine] ?
Result :: 0.385 (inactive)

Query :: Form field: reported myelination of CC(=O)OCC[N+](C)(C)C [Acetylcholine]
Result :: -15.1 (inactive)
